Assay: HepG2 liver cancer cell viability effects, profiling panel, resazurin fluorescence, 24 h, PK04 Diversity Set (AID 1172); also: test concentration not given here
Conditions: higher = more signal
Each entry gets NO if its z-score stays under 0.3, and YES if its z-score is 0.3 or above.

1. C=CCNC(=O)[C@@H]1[C@H]2C(=O)O[C@H](c3ccccc3)[C@H](c3ccccc3)N2[C@H](c2ccc(OCCO)cc2)[C@@]12C(=O)Nc1ccc(C#CCNC(N)=O)cc12: NO
2. COCCOC(=O)N1C(=O)[C@@]2(c3cc(C#CC4(O)CCCCCC4)ccc31)[C@H](C(N)=O)[C@H]1C(=O)O[C@H](c3ccccc3)[C@H](c3ccccc3)N1[C@@H]2c1ccc(OCCO)cc1: NO
3. Cc1cccc([C@H]2C[C@H]3C(Br)=C[C@@]2(CO)C(=O)[C@]32CO2)c1: YES
4. COc1ccc(CCNC(=O)[C@@H]2c3ccccc3C(=O)N(Cc3cc(F)cc(C(F)(F)F)c3)[C@H]2c2ccc(CO)cc2)cc1: NO
5. CC(C)(C)OC(=O)CC[C@]1(C(=O)N2CCOCC2)COC(c2ccc(OCCCO)cc2)=N1: YES

API: the following record is the query input.
Task: Is the recorded value of z-score equal to or greater than 0.3 for this compound? COCCOC(=O)N1C(=O)[C@@]2(c3cc(C#CC4=CCCCC4)ccc31)[C@H](C(=O)N1CCCCCCC1)[C@H]1C(=O)O[C@H](c3ccccc3)[C@H](c3ccccc3)N1[C@@H]2c1ccccc1OCCO
Output: YES

* * *

Biological target: Focal adhesion kinase 1 (Homo sapiens)
Assay: small-molecule microarray binders of FAK, primary screen, biochemical, 635/667 nm fluorescence, BSA, DTT (AID 1130);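 also: composite of spot emission at 667 nm and signal to noise over triplicate slides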
Settings: PTK2 binding, 635 nm fluorescence, higher = more signal
RECORDED_METRIC: composite z-score
Respond numerically, and do not add a unit to the figure.

Worked set:
1. O=C1O[C@H](c2ccccc2)[C@H](c2ccccc2)N2[C@H]1[C@@H](C(=O)N1CCCCCCC1)[C@]1(C(=O)Nc3ccc(C#CCCO)cc31)[C@H]2c1ccc(O)cc1: 4.55
2. CC(C)(C)OC(=O)CC[C@@]1(C(N)=O)N=C(c2ccc(OCCCO)cc2)O[C@@H]1c1ccccc1CN=[N+]=[N-]: 0.177
3. COc1ccc(C(=O)Nc2cccc(CN3C(=O)[C@]4(O[C@H](CC(=O)N(CCO)Cc5ccccc5)[C@@H]([Si](C)(C)c5ccc(OC)cc5)[C@@H]4C)c4ccccc43)c2)cc1: 0.116
4. C=CCNC(=O)[C@@H]1[C@H]2C(=O)O[C@H](c3ccccc3)[C@H](c3ccccc3)N2[C@H](c2ccc(O)cc2)[C@@]12C(=O)N(C(=O)OCCOC)c1ccc(C#CCC(C(=O)OC)C(=O)OC)cc12: 0.214
5. CC(C)N1C(=O)[C@@]2(Cc3ccccc31)c1ccccc1C(=O)N(Cc1ccccc1C(F)(F)F)[C@H]2c1ccc(CO)cc1: 0.368

Task: Entry under review: C=CC[C@]1(C(=O)NCCN2CCOCC2)N=C(c2ccc(OCCCO)cc2)O[C@H]1c1ccccc1 . Reported composite z-score?
Output: 0.0827

Task: composite z-score lookup needed for C[C@]12C(=O)N(CCO)[C@@H]3C(=O)N(c4ccc(Cl)cc4)CC=CC31O[C@@H]1/C=C\CCCOC(=O)C12 (some centres not stated) , thanks.
Output: -0.422

* * *

Test system: Noggin (protein binding on small-molecule microarray)
Test: Noggin binders on small-molecule microarray, primary screen, biochemical, 635/667 nm fluorescence (AID 1095);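 also: score merges 667 nm feature fluorescence with signal to noise over triplicate slides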
Conditions: 635 nm fluorescence, higher = more signal
RECORDED_METRIC: composite z-score
Keep the answer to the number alone.

Examples with their reported composite z-score follow.
1. [N-]=[N+]=NCc1ccccc1[C@H]1OC(c2ccc(OCCCO)cc2)=N[C@@]1(Cc1ccccc1N=[N+]=[N-])C(=O)O: 0.145
2. O=C1C2C=CC(C(O)c3ccccn3)N(Nc3ccc([N+](=O)[O-])cc3)C2C(=O)N1c1ccccc1 (centres undefined): -0.493
3. COc1cccc(C)c1NC(=O)O[C@H]1[C@H](OC(=O)Nc2ccc3c(c2)OCO3)[C@H](OC(=O)Nc2ccc3c(c2)OCO3)[C@@H](OC)O[C@@H]1CO: 0.701

Task: I'd like to know its composite z-score. The compound in question is Cc1ccc(N2C(=O)c3ccccc3[C@@H](C(=O)NCCN3CCOCC3)[C@@H]2c2ccc(CO)cc2)nc1
Output: 0.0453

Task: I would be grateful if you could share the reported composite z-score for COc1cc(Cc2cc3c(c(CCc4ccccc4)n2)[Si](C(C)C)(C(C)C)O[C@H]3c2ccccc2)cc(OC)c1OC .
Output: -0.288

Task: I'd like to know its composite z-score. The compound in question is CCCCC(=C=CC[C@@H](O)c1ccccc1OCCO)C[C@@H](O)c1ccccn1
Output: 0.191

Task: Look up composite z-score for this compound: Cc1ccc(S[C@]2(C(=O)NC(C)C)CC(=O)N(Cc3ccccc3)[C@@H]2c2ccc(CO)cc2)cc1
Output: -0.371

Task: Give its composite z-score value. Item: C=CCOC(=O)[C@@H]1[C@H]2C(=O)O[C@H](c3ccccc3)[C@H](c3ccccc3)N2[C@H](c2ccc(OCCOC(=O)[C@H]3C[C@H]4C(=O)N[C@@H](CCCCN(C)C)C(=O)N4[C@H]3c3cccc(OCCO)c3)cc2)[C@@]12C(=O)Nc1ccccc12
Output: 0.221

Task: Which value of composite z-score has been reported for CC(=O)NCCCC[C@@H]1NC(=O)[C@H]2C[C@@H](C(=O)O)[C@@H](c3cccc(OCCO)c3)N2C1=O in the records?
Output: 1.58

Task: Recorded composite z-score for O=C(CS)NCCCCCCNC(=O)[C@H]1C[C@H]2C(=O)NCC(=O)N2[C@H]1c1cccc(OCCO)c1 , please?
Output: 0.6

Task: Record request: composite z-score value, item C=CCNC(=O)[C@@H]1[C@H]2C(=O)O[C@H](c3ccccc3)[C@H](c3ccccc3)N2[C@H](c2ccc(OCCO)cc2)[C@@]12C(=O)N(C(=O)OCCOC)c1ccccc12
Output: 1.04

* * *

Experiment: small-molecule microarray binders of probe aNog, primary screen, biochemical, biotinylated probe, 635/667 nm fluorescence (AID 1115);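 also: probe is biotinylated aNog protein used at 0.15 µg/mL for 1 h at 4 C; z-score combines 667 nm fluorescence of each spot with its signal to noise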
Conditions: higher = more signal
Label Satisfied when composite z-score >= -0.02; otherwise Not satisfied.

1) C=CCN1C(=O)[C@]2(O[C@H](CCO)[C@@H]([Si](C)(C)c3ccc(OC)cc3)[C@@H]2C)c2cc(N3C(=O)c4ccccc4Oc4ccccc43)ccc21: Not satisfied
2) CCOC(=O)C[C@H]1[C@H](OC(=O)c2ccc(-c3ccccc3)cc2)[C@@H](NC(=O)C2CCCCC2)c2cc(OCCCO)ccc2N1C(=O)Cc1ccc(OC)cc1: Not satisfied
3) [N-]=[N+]=NCc1ccccc1[C@H]1OC(c2ccc(OCCCO)cc2)=N[C@@]1(Cc1ccccc1N=[N+]=[N-])C(=O)N1CCOCC1: Satisfied
4) C=C(C(=O)CC[C@@H](OC(=O)c1cccnc1)c1cccc(OCCO)c1)C(C)C: Not satisfied
5) O=C1C2C=CC(C(O)C3CC=CCC3)N(Nc3ccc([N+](=O)[O-])cc3)C2C(=O)N1c1ccccc1 (configuration not stated): Satisfied
6) CCOC(=O)C[C@H]1[C@H](OC(=O)Cc2ccc3c(c2)OCO3)[C@@H](NC(=O)CC(C)C)c2cc(OCCCO)ccc2N1C(=O)c1ccc2ccccc2n1: Not satisfied

As a next step, examine the molecule that follows.
Task: Is composite z-score at least -0.02? Consider CS(=O)(=O)CCOC(=O)C1=CC(CCCO)=CC(C2CC2)N(Cc2sc3ccccc3c2Cl)C=C1C(=O)OCCS(C)(=O)=O (configuration not stated)
Output: Satisfied

* * *

Known composite z-score of a selection of compounds
Molecular target: Epidermal growth factor receptor (Homo sapiens)
Assay: EGFR binders on small-molecule microarrays, primary screen, biochemical, small-molecule microarray, 635 nm fluorescence (AID 1104);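 also: score merges 667 nm emission intensity with spot signal to noise over triplicate slides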
Settings: EGFR binding, higher = more signal
A bare number is all that is needed in reply.

Solved cases (3 shown):
1) CCCCN1CC=CC23O[C@@H]4/C=C\CCCOC(=O)C4[C@H]2C(=O)N(CCCCCCO)[C@@H]3C1=O (some centres undefined): -1.08
2) O=C1C2C=CC(C(O)C3CC=CCC3)N(Nc3ccc([N+](=O)[O-])cc3)C2C(=O)N1c1ccccc1 (centres undefined): 0.619
3) CC[C@H]1C2=C3C(CC[C@H]4C(OCc5ccc(F)cc5C(F)(F)F)OC[C@](C)([C@@H]34)N(C(=O)OC(C)(C)C)C2)C(COC(C)=O)C1COC(C)=O (some centres undefined): -0.379

Continue with the next compound.
Task: Return composite z-score measured with Epidermal growth factor receptor (Homo sapiens) given this compound: CCOC(=O)C[C@H]1[C@H](OC(=O)c2ccc(-c3ccccc3)cc2)[C@@H](NC(=O)C2CCCCC2)c2cc(OCCCO)ccc2N1C(=O)Cc1ccc(OC)cc1
Output: 0.273
